Origin of measurements: patent US12435089B2

# ASSAY TARGET: ALK (G1202R) (Homo sapiens (Human), UniProt Q9UM73, G1202R)
# Sequence (Q9UM73 19-1620 G1202R): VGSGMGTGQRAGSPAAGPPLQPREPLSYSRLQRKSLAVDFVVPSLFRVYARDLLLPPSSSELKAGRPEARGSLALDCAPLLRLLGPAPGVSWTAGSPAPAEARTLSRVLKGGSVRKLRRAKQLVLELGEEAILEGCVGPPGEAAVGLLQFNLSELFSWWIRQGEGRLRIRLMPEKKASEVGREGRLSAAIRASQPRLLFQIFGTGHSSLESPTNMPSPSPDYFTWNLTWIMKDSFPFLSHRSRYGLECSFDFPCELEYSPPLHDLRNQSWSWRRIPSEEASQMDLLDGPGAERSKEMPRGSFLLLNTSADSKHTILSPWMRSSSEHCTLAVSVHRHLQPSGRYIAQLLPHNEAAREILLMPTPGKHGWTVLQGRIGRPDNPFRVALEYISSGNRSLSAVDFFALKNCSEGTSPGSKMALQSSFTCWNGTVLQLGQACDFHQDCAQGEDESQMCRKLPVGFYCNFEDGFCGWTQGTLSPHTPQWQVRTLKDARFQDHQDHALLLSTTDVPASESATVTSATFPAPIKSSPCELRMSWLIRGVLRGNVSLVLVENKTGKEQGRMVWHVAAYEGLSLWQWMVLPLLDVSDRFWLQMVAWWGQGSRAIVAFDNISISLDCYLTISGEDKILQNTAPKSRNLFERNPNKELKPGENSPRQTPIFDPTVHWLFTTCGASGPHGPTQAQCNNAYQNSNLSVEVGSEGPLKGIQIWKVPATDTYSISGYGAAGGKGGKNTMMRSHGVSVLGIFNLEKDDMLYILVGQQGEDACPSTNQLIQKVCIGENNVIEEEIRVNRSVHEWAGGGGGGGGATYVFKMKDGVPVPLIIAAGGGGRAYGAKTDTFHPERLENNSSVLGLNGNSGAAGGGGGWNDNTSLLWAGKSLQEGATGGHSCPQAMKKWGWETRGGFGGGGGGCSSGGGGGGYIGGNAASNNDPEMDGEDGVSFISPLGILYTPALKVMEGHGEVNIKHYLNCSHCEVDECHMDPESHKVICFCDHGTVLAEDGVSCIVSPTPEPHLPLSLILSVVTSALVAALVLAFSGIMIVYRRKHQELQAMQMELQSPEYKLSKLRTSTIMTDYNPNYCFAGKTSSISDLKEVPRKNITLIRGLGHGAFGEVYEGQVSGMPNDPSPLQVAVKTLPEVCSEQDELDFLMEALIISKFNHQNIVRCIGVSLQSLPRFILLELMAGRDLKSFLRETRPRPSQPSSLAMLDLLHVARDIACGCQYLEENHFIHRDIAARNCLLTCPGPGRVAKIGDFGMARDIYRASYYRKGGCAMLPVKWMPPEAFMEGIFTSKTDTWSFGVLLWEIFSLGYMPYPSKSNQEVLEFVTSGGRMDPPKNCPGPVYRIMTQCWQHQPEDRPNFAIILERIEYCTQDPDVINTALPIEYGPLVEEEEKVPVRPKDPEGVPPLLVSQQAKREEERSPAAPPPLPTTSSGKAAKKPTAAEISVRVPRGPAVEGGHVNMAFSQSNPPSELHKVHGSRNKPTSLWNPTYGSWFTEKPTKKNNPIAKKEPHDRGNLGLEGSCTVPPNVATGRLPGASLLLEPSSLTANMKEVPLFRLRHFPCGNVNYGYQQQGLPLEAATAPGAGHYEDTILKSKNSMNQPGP
# MEASUREMENT PROTOCOL: Radio-tagged HotSpot kinase assay, ALK (G1202R)
# Format: biochemical
# EXPERIMENTAL PARAMETERS: 33P-ATP, 120 min, room temperature
OBSERVABLE: IC50

Please review the following examples before continuing.
>  <MOL SMILES>
COc1ncc(F)cc1[C@@H](C)Nc1ccn2ncc(C3=NOC(C)(C)N3)c2n1

>  <ASSAY TARGET>
ALK (G1202R) (Homo sapiens (Human), UniProt Q9UM73, G1202R)

>  <IC50>
0.5 to 5 nM

$$$$
>  <MOL SMILES>
C[C@@H](Nc1ccn2ncc(C3=NOC(C)(C)N3)c2n1)c1cc(F)ccc1F

>  <ASSAY TARGET>
ALK (G1202R) (Homo sapiens (Human), UniProt Q9UM73, G1202R)

>  <IC50>
5 to 50 nM

$$$$
>  <MOL SMILES>
COc1ccc(F)cc1[C@@H](C)Nc1ccn2ncc(C3=NOC(C)(C)N3)c2n1

>  <ASSAY TARGET>
ALK (G1202R) (Homo sapiens (Human), UniProt Q9UM73, G1202R)

>  <IC50>
0.5 to 5 nM

$$$$

Noted for C[C@@H](Nc1ccn2ncc(C3=NOC(C)(C)N3)c2n1)c1cc(F)ccc1Br : its IC50 reads 5 to 50 nM

Noted for [2H]C([2H])([2H])Oc1ccc(F)cc1[C@@H](C)Nc1ccn2ncc(C3=NOC(C)(C)N3)c2n1 : its IC50 reads 5 to 50 nM
